- study_system: Sortase A (Staphylococcus aureus, UniProt Q9S446)
- Sequence (Q9S446 whole entry): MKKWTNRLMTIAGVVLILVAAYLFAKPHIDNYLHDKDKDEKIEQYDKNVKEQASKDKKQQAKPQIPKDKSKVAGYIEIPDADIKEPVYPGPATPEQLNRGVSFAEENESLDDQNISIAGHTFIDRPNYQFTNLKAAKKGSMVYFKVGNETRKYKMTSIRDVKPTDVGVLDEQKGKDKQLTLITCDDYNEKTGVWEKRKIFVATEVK
- protocol: Binding affinity to Staphylococcus aureus SrtA assessed as inhibition constant
outcome_measure: pKi
Answers are plain numbers, as −log10 of the molar value.

Item: O=C1C[C@H]2O[C@H](CCc3ccccc3)C3=C(C(=O)C=CC3=O)[C@H]2O1 | System: Sortase A (Staphylococcus aureus, UniProt Q9S446) | pKi: 5.45
